Recorded values, source PubChem BioAssay (NCI).

Test system: SF-268 CNS
test: NCI tumour cell line growth inhibition, 48 h
measurement_label: TGI

[
  {
    "compound": "S=C(c1c[nH]c2ccccc12)N1CCOCC1",
    "TGI": "> 100 µM"
  }
]

Q: // fetch TGI; item: NC(=O)C(N)Cc1ccc(O)cn1 (stereo not given) ; system: SF-268 CNS
Ans: > 100 µM

* * *

System: IGROV1 ovarian
test: NCI tumour cell line growth inhibition, 48 h
measurement_label: TGI

[
  {
    "compound": "O=[N+]([O-])c1nccn1CC(O)c1ccc(F)cc1 (stereo not given)",
    "measurement_label": "TGI",
    "measured_value": "> 100 µM"
  },
  {
    "compound": "OCCN1CN(CCO)CN(c2nc(N3CN(CCO)CN(CCO)C3)nc(N3CN(CCO)CN(CCO)C3)n2)C1",
    "measurement_label": "TGI",
    "measured_value": "4.61 ng/mL"
  },
  {
    "compound": "c1ccc2sc(C3(N4CCCC4)CCCCCC3)cc2c1",
    "measurement_label": "TGI",
    "measured_value": "46.2 µM"
  },
  {
    "compound": "O=C(OCc1ccc2cccc(O)c2n1)N1CCN(C(=O)c2cc3cc(F)ccc3[nH]2)CC1",
    "measurement_label": "TGI",
    "measured_value": "1.64 µM"
  },
  {
    "compound": "C=C(C=O)[C@@H]1C2OC(=O)C(=C)[C@@H]2CC(O)[C@@]1(C)CC (stereo not given in full)",
    "measurement_label": "TGI",
    "measured_value": "> 28.7 µM"
  },
  {
    "compound": "COc1cc(-c2cc(=O)c3c(OC)c(OC)c(OC)c(OC)c3o2)c(OC)c(OC)c1OC",
    "measurement_label": "TGI",
    "measured_value": "> 100 µM"
  },
  {
    "compound": "O=[N+]([O-])c1ccc(Cl)c(C=NC23CC4CC(CC(C4)C2)C3)c1",
    "measurement_label": "TGI",
    "measured_value": "> 10 µM"
  },
  {
    "compound": "Cc1cc(Br)cc(C)c1NC(=O)C(=O)C(C(=O)c1ccc2ccccc2c1)C1OC(=O)c2ccccc21 (stereo not given)",
    "measurement_label": "TGI",
    "measured_value": "51.8 µM"
  },
  {
    "compound": "COc1ccc(N2C(=O)C(c3ccccc3)(c3ccccc3)C23C(=O)N(C)c2ccccc23)cc1 (stereo not given)",
    "measurement_label": "TGI",
    "measured_value": "> 100 µM"
  },
  {
    "compound": "CN1C(=O)N/C(=C\\c2ccc(S(=O)(=O)NN)cc2)C1=O",
    "measurement_label": "TGI",
    "measured_value": "> 100 µM"
  }
]

Q: Please give measured TGI of the following entry: `CC[N+](CC)(CCNCC(N)=O)CC(N)=O`
Ans: > 10 µM

Q: Please give measured TGI of the following entry: `CCC(=O)NC(Nc1cccc(F)c1C)(C(F)(F)F)C(F)(F)F`
Ans: > 100 µM

Q: Please give measured TGI of the following entry: `S=C(NCc1ccccc1)c1nc[nH]c1C(=S)NCc1ccccc1`
Ans: 19.8 µM

Q: Please give measured TGI of the following entry: `COc1nc(C(=O)NNC(=O)c2nc(OC)c3ccccc3c2-c2ccccc2)c(-c2ccccc2)c2ccccc12`
Ans: > 100 µM

Q: Please give measured TGI of the following entry: `CC(C)c1ccc(Nc2ccc3c(OCCCN4CCN(C)CC4)cccc3n2)cc1`
Ans: 32.6 µM

* * *

Test system: COLO 205 colon
test: NCI tumour cell line growth inhibition, 48 h
measurement_label: TGI (µM)
Express your answer in µM, writing the number without its unit.

Examples with answers:
[
  {
    "compound": "Cc1ccc(S(=O)(=O)N/N=C/C(=C/c2ccc(Cl)cc2)CC(/C=N/NS(=O)(=O)c2ccc(C)cc2)=C\\c2ccc(Cl)cc2)cc1",
    "measurement_unit": "µM",
    "TGI": 16.9
  },
  {
    "compound": "CCN(CC)c1c(N(CC)CC)c(=O)c1=O",
    "measurement_unit": "µM",
    "TGI": 8.24
  }
]

Next:
Q: Please give measured TGI of the following entry: `COc1cc(Nc2cn[nH]c2-c2ccc(Cl)cc2)cc(OC)c1OC`
Ans: 21.9

* * *

Reported TGI values for the following compounds.
Test system: A549 NSCLC
test: NCI tumour cell line growth inhibition, 48 h
Express your answer in µM, writing the number without its unit.

Examples with answers:
[
  {
    "compound": "O=C(OCc1ccc2cccc(O)c2n1)N1CCN(C(=O)c2cc3cc(F)ccc3[nH]2)CC1",
    "measurement_unit": "µM",
    "TGI": 3.35
  },
  {
    "compound": "Cc1c2cccnc2c(C)c2c1c1cc(CO)ccc1n2C",
    "measurement_unit": "µM",
    "TGI": 11.7
  }
]

Q: Please give measured TGI of the following entry: `C=C(C)[C@@]12OC3(/C=C/C=C/CCCCC)O[C@@H]1[C@@H]1[C@@H]4O[C@]4(CO)[C@@H](O)[C@]4(O)C(=O)C(C)=C[C@H]4[C@@]1(O3)[C@H](C)[C@H]2OC(=O)c1ccccc1`
Ans: 2.04

* * *

Tested on: RXF 393 renal
test: NCI tumour cell line growth inhibition, 48 h; in the data active = GI50 below about 0.43 µM; inactive = the rest
One label from this list, please: 1.0 = active, 0.0 = inactive

Worked examples, 5 compounds total:
[
  {
    "compound": "Cc1ccc(C(SCC(N)C(=O)O)(c2ccccc2)c2ccc(C)cc2)cc1 (centres undefined)",
    "label": 1.0
  },
  {
    "compound": "O=[N+]([O-])c1ccc(C=C2C(Cl)=C(Cl)C(Cl)=C2Cl)cc1",
    "label": 0.0
  },
  {
    "compound": "Cn1cc(C2=C(c3ccc4ccccc4c3)C(=O)NC2=O)c2ccccc21",
    "label": 0.0
  },
  {
    "compound": "COc1ccc(N2C(=O)C(c3ccccc3)(c3ccccc3)C23C(=O)N(C)c2ccccc23)cc1 (centres undefined)",
    "label": 0.0
  },
  {
    "compound": "O=C(c1ccccc1)c1cc(Cl)ccc1OCCCCN1CCN(CCCCOc2ccc(Cl)cc2C(=O)c2ccccc2)CC1",
    "label": 0.0
  }
]

Q: So what was the verdict on `CCOc1nc(-c2ccccc2)cc2c(O)c(-c3nnco3)[nH]c(=O)c12` in this test?
Ans: 0.0

Q: So what was the verdict on `CC/C(=C(/c1ccc(OCCN(C)C)cc1)c1ccc(OC(=O)CCCCC(=O)c2c(C)[nH]c(/C=C3\N=C(c4ccc[nH]4)C=C3OC)c2C)cc1)c1ccccc1` in this test?
Ans: 0.0

Q: So what was the verdict on C=C(C=O)C1CCC2(C(=O)O)CCC3(C)C(CCC4C5(C)CCC(O)C(C)(C)C5CCC43C)C12 (centres undefined) in this test?
Ans: 0.0

Q: So what was the verdict on CC(C)(C)C(=O)OCOP(=O)(OCOC(=O)C(C)(C)C)C1CCCN(O)C1=O (centres undefined) in this test?
Ans: 1.0

Q: So what was the verdict on C[As](C)SC1OC(CO)C(O)C1O (centres undefined) in this test?
Ans: 1.0

Q: So what was the verdict on `COc1ccc(C(=O)c2cc(OC)c(C)c(OC)c2)cc1OC(=O)CCl` in this test?
Ans: 1.0

Q: So what was the verdict on `NC(=NCCCOc1ccc(Cl)cc1)Nc1ccc(C(F)(F)F)cc1` in this test?
Ans: 0.0

Q: So what was the verdict on `COC(=O)/C=C/c1cc(O)c2oc(-c3ccc(O)c(O)c3)c(C(=O)OC)c2c1` in this test?
Ans: 0.0

Q: So what was the verdict on `O=S(=O)(Nc1cc(F)cc(Cl)c1)c1ccc(-c2cnc(C3CC3)o2)cc1` in this test?
Ans: 0.0

* * *

Test system: MDA-MB-231 breast
test: NCI tumour cell line growth inhibition, 48 h
measurement_label: TGI

Examples with answers:
[
  {
    "molecule": "CCSc1n/c(=C\\c2ccco2)c2nnnn12",
    "target_entity": "MDA-MB-231 breast",
    "measured_value": "> 100 µM"
  },
  {
    "molecule": "CC1CC(N)=Nc2ccccc2N1 (stereo not drawn)",
    "target_entity": "MDA-MB-231 breast",
    "measured_value": "> 100 µM"
  }
]

Next:
Q: Please give measured TGI of the following entry: `COCCOCc1nc(C#N)c(N)o1`
Ans: > 100 µM

* * *

Reported TGI values for the following molecules.
System: T-47D breast
test: NCI tumour cell line growth inhibition, 48 h

Examples with answers:
[
  {
    "molecule": "O=C(O)c1nc(-c2ccccc2)ncc1-c1nnnn1-c1ccccc1",
    "TGI": "> 100 µM"
  },
  {
    "molecule": "Cc1nnc(S(=O)(=O)c2ccc(N=Nc3c(N)nc(N)nc3N)cc2)s1",
    "TGI": "> 100 µM"
  }
]

Q: Please give measured TGI of the following entry: COc1ccc(N2C(=O)C(c3ccccc3)(c3ccccc3)C23C(=O)N(C)c2ccccc23)cc1 (stereo not given)
Ans: > 100 µM

Q: Please give measured TGI of the following entry: `OCCN1CN(CCO)CN(c2nc(N3CN(CCO)CN(CCO)C3)nc(N3CN(CCO)CN(CCO)C3)n2)C1`
Ans: 4.92 ng/mL

Q: Please give measured TGI of the following entry: `CCc1nc(N)nc(N)c1-c1ccc(Cl)c(Cl)c1`
Ans: > 100 µM

Q: Please give measured TGI of the following entry: `O=C(O)/C=N\Nc1nc2ccccc2[nH]1`
Ans: > 100 µM
